# Assay overview: survival rescue of mitochondrial mutant cells in low glucose, primary screen, MELAS cybrids, Rieske KO mouse fibroblasts, CellTiter-Glo (AID 1508586);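 also: z relative to plate mean and SD of compound and empty wells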
# Measurement conditions: Rieske KO mouse fibroblast survival, CellTiter-Glo 72 h
Classify by z-score. Ranges: low = under -0.3, mid = from -0.3 up to -0.03, high = -0.03 and over

Kindly identify the class of COc1cc(C)c(NC(=O)CN(C)C)cc1Nc1nc(Nc2cccc(F)c2C(N)=O)c2cc[nH]c2n1 . high

Kindly identify the class of COc1cc2ncn(-c3cc(OCc4ccccc4C(F)(F)F)c(C(N)=O)s3)c2cc1OC . low

Kindly identify the class of COc1cc2ncn(-c3cc(O[C@@H](C)c4ccccc4Cl)c(C(N)=O)s3)c2cc1OC . high

====

# Assay overview: glucagon-like peptide 1 release enhancers, primary assay, NCI-H716 cell line, NPC library (AID 1117341); also: reference of the scale not given here
# Measurement conditions: NCI-H716 cells, at 10 µM, stronger effect = higher value
Active and inactive are the calls of the source.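 The calls were made as follows: active = compound raises GLP1 secretion from the human gut endocrine cells, with no numeric limit stated; inactive = the rest.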
Experimental endpoint: GLP1 secretion stimulation

# count of solved cases: 2
Please fill in: GLP1 secretion stimulation reported for O=C1CC[C@H](C(=O)N2CCCCC2)N1 = 0.9% (inactive)

Please fill in: GLP1 secretion stimulation reported for CCCCNc1cc(C(=O)O)cc(S(N)(=O)=O)c1Oc1ccccc1 = -2.2% (inactive)

---
Please fill in: GLP1 secretion stimulation reported for CS(=O)(=O)c1ccc(-c2cn3ccccc3n2)cc1 = -2.6% (inactive)

Please fill in: GLP1 secretion stimulation reported for O=C(O)c1[nH]n(-c2ccc(S(=O)(=O)O)cc2)c(=O)c1N=Nc1ccc(S(=O)(=O)O)cc1 = -3% (inactive)

Please fill in: GLP1 secretion stimulation reported for NC(N)=NC(=O)c1nc(Cl)c(N)nc1N = 2% (inactive)

====

# Assay overview: growth inhibition of GSK3B-pretreated HCT116 cells – cell-based, CellTiter-Glo, 0.2 to 20 µM (AID 1117336)
# Measurement conditions: HCT116 viability after GSK3B inhibitor, at 20 µM
The source made the active and inactive calls.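 How the source made its calls: active means compounds lowering colon cancer cell viability after pretreatment blocking the GSK3B kinase; inactive means the rest.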
Respond using exactly one of the listed classes: Y for active, N for inactive

Lab log entry: CCCCCCCCCCCCCCCCCC(=O)OCC(O)CO (configuration not stated) — outcome as called in the assay? N

Lab log entry: CCOC(=O)[C@H](CCc1ccccc1)N[C@@H](C)C(=O)N(CC(=O)O)C1Cc2ccccc2C1 — outcome as called in the assay? N

Lab log entry: CC(C)(C)C(=O)NCCCC(=O)O — outcome as called in the assay? N

Lab log entry: CC(C)=CCC/C(C)=C/CC/C(C)=C/CCC(=O)OC/C=C(\C)CCC=C(C)C — outcome as called in the assay? N

Lab log entry: O=C(Nc1ncc([N+](=O)[O-])s1)c1cccs1 — outcome as called in the assay? N

Lab log entry: CN1[C@@H]2CC[C@H]1CC(NC(=O)n1c(=O)[nH]c3ccccc31)C2 (some centres not stated) — outcome as called in the assay? N

---
Lab log entry: CCN(CC)CCSC(=O)C(c1ccccc1)c1ccccc1 — outcome as called in the assay? N

Lab log entry: CO[C@@H]1[C@@H](OC)[C@H](C)[C@@](O)(CC(=O)O)O[C@H]1[C@H](C)[C@H]1O[C@@]2(CC[C@@](C)([C@H]3CC[C@@](C)([C@@H]4O[C@@H]([C@H]5O[C@](C)(O)[C@H](C)C[C@@H]5C)C[C@@H]4OC4C[C@H](OC)[C@@H](OC)[C@H](C)O4)O3)O2)C[C@H](O)[C@H]1C (some centres not stated) — outcome as called in the assay? Y

Lab log entry: Cc1ncc(COP(=O)(O)O)c(C=O)c1O — outcome as called in the assay? N

Lab log entry: CC1=C(C(=O)O)N2C(=O)[C@@H](NC(=O)[C@H](N)c3ccccc3)[C@H]2SC1 — outcome as called in the assay? N

Lab log entry: CC(=O)OCC(=O)Nc1cc(C#N)cc(NC(=O)COC(C)=O)c1Cl — outcome as called in the assay? N

Lab log entry: CCOC(=O)CN1CCCC1=O — outcome as called in the assay? N

Lab log entry: COc1ccccc1N1CCN(CCCNc2cc(=O)n(C)c(=O)n2C)CC1 — outcome as called in the assay? N

Lab log entry: COc1ccc2c(c1)c(CC(=O)O)c(C)n2C(=O)c1ccc(Cl)cc1 — outcome as called in the assay? N

Lab log entry: CC1CC(=O)NN=C1c1ccc(NCC(C)(C)NCC(O)COc2cc(Cl)ccc2C#N)cc1 (configuration not stated) — outcome as called in the assay? N

Lab log entry: C[C@H](CCC(=O)O)[C@H]1CC[C@H]2[C@@H]3CC[C@@H]4C[C@H](O)CC[C@]4(C)[C@@H]3C[C@H](O)[C@]12C — outcome as called in the assay? N

Lab log entry: Cc1cccc(Nc2ccncc2S(=O)(=O)NC(=O)NC(C)C)c1 — outcome as called in the assay? N

Lab log entry: CCCCC(O)/C=C(C)/C=C/C=C/C(=O)N1CCCC1=O (configuration not stated) — outcome as called in the assay? N

Lab log entry: O=C(O)c1cc(=O)c2c3nc4ccccc4oc-3cc(=O)c2[nH]1 — outcome as called in the assay? N

Lab log entry: O=S(=O)(O)c1ccc2nc(-c3ccccc3)[nH]c2c1 — outcome as called in the assay? N

Lab log entry: CCCCCC(N)=O — outcome as called in the assay? N

Lab log entry: CN(C)CCN1CCN(c2cccc(Cl)c2)C1=O — outcome as called in the assay? N

Lab log entry: CCS(=O)(=O)CCn1c([N+](=O)[O-])cnc1C — outcome as called in the assay? N
